target: T1, human MMP-12 (human, UniProt P39900 106-470, limits assumed); assay: BIACORE, coated Fab
T1 construct: also called hMMP-12; huMMP12
T1 sequence (P39900 106-470 limits assumed): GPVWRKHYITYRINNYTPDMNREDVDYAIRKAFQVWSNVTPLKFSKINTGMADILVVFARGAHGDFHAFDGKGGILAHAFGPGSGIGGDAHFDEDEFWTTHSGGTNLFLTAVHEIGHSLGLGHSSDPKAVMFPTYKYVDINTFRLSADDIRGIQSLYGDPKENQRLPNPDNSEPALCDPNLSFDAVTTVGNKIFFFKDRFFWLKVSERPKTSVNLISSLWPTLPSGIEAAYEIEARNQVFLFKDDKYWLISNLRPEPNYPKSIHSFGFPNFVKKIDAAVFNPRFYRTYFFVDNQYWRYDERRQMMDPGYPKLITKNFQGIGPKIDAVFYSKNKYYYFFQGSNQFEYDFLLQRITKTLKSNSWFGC
test readout: Kd (nM)
# unit: nM | format: bare number

539B-M0067-F06 (Fab, V domains shown) VH: EVQLLESGGGLVQPGGSLRLSCAASGFTFSWYNMSWVRQAPGKGLEWVSRISPSGGDTGYADSVKGRFTISRDNSKNTLYLQMNSLRAEDTAVYYCAKDIRGAYSSGLFDYWGRGTLVTVSS VL: DIQMTQSPSSLSASVGDRVTITCRANQSIYTYLNWYQQKPGKAPELLIYAASSLQSGVPSRFSGSGSGTDFTLTISSLQPEDFATYYCQQAGIFGQGTKLEIK
0.203

Which Kd is listed for 539B-M0063-C07 (Fab, V domains shown) VH: EVQLLESGGGLVQPGGSLRLSCAASGFTFSPYWMSWVRQAPGKGLEWVSGISPSGGITFYADSVKGRFTISRDNSKNTLYLQMNSLRAEDTAVYYCAKDIRGAYSSGLFDYWGRGTLVTVSS VL: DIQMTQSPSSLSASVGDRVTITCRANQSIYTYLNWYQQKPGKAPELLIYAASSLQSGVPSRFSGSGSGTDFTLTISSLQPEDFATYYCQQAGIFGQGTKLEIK ?
2.29

Recorded Kd of 539B-M0069-C02 (Fab, V domains shown) VH: EVQLLESGGGLVQPGGSLRLSCAASGFTFSYYNMHWVRQAPGKGLEWVSGIGPSGGGTLYADSVKGRFTISRDNSKNTLYLQMNSLRAEDTAVYYCAKDIRGAYSSGLFDYWGRGTLVTVSS VL: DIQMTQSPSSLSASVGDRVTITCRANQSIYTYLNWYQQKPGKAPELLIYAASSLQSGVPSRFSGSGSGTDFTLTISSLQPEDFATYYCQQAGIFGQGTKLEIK , please.
6.97

Can you look up the measured Kd of 539B-M0063-B01 (Fab, V domains shown) VH: EVQLLESGGGLVQPGGSLRLSCAASGFTFSWYWMGWVRQAPGKGLEWVSSISPSGGYTFYADSVKGRFTISRDNSKNTLYLQMNSLRAEDTAVYYCAKDIRGAYSSGLFDYWGRGTLVTVSS VL: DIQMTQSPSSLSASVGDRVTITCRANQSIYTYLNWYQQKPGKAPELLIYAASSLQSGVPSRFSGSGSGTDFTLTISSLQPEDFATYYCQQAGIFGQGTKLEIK for me?
0.171

Could you share which Kd value was measured for 539B-M0071-A01 (Fab, V domains shown) VH: EVQLLESGGGLVQPGGSLRLSCAASGFTFSEYWMTWVRQAPGKGLEWVSGISPSGGMTFYADSVKGRFTISRDNSKNTLYLQMNSLRAEDTAVYYCAKDIRGAYSSGLFDYWGRGTLVTVSS VL: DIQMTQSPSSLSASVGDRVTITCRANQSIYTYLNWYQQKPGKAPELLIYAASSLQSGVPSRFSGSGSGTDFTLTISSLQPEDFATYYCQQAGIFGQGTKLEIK ?
1.1

Fill blank: measured Kd of the binder 539B-M0063-B11 (Fab, V domains shown) VH: EVQLLESGGGLVQPGGSLRLSCAASGFTFSPYWMHWVRQAPGKGLEWVSGIGPSGGLTFYADSVKGRFTISRDNSKNTLYLQMNSLRAEDTAVYYCAKDIRGAYSSGLFDYWGRGTLVTVSS VL: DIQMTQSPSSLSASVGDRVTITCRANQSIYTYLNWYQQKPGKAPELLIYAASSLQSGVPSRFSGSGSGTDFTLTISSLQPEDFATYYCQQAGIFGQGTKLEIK is ____.
0.12

Consider the binder shown here: 539B-M0063-G01 (Fab, V domains shown) VH: EVQLLESGGGLVQPGGSLRLSCAASGFTFSWYWMVWVRQAPGKGLEWVSSIGPSGGDTYYADSVKGRFTISRDNSKNTLYLQMNSLRAEDTAVYYCAKDIRGAYSSGLFDYWGRGTLVTVSS VL: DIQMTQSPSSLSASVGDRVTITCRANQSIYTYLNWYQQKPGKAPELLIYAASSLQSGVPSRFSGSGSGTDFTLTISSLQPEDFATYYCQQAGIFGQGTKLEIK What is its recorded Kd?
1.58

Consider the binder shown here: 539B-M0071-H03 (Fab, V domains shown) VH: EVQLLESGGGLVQPGGSLRLSCAASGFTFSPYWMHWVRQAPGKGLEWVSGIGPSGGPTFYADSIKGRFTISRDNSKNTLYLQMNSLRAEDTAVYYCAKDIRGAYSSGLFDYWGRGTLVTVSS VL: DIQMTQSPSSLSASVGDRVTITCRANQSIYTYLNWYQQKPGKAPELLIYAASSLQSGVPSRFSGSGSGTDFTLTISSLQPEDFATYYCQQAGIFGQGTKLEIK What is its recorded Kd?
1.03

Looking for the measured Kd of 539B-M0067-B06 (Fab, V domains shown) VH: EVQLLESGGGLVQPGGSLRLSCAASGFTFSWYWMHWVRQAPGKGLEWVSGIVSSGGTTIYADSVKGRFTISRDNSKNTLYLQMNSLRAEDTAVYYCAKDIRGAYSSGLFDYWGRGTLVTVSS VL: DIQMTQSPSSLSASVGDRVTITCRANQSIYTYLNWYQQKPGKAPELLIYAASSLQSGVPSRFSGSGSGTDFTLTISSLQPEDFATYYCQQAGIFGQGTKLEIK , can you help?
0.62
